Tested on: NCI-H23 lung
protocolDescription: NCI-60 one-dose screen, 48 h (100 = growth as untreated, 0 = no growth, -100 = all killed)
conditionNotes: 10 µM unless noted
This is part of a sample that, as a whole, favours compounds with a hit. Of some 83,000 tested, about 20% had one in any assay.
Exam item: assign t to entries whose growth is below 50% and f to entries at or above 50%. Note that a value of exactly 50% receives f.

Input line: Consider the compound Cc1c(-c2ccc(-c3ccccc3F)cc2)nc2ccc(F)cc2c1C(=O)O . Is its growth strictly less than 50%?
Output line: f

Input line: Identify whether the compound CN1CCN(Cc2ccc(NC(=O)c3cncc(C#Cc4ncc5cnccn45)c3)cc2C(F)(F)F)CC1 records growth below 50%.
Output line: t

Input line: Quick check: does N#Cc1nc(-c2cccc(Br)c2)cc(-c2ccc(Nc3nc(N4CCCCC4)nc(N4CCCCC4)n3)cc2)c1N have growth under 50%?
Output line: t

Input line: Determine whether this compound shows growth lower than 50% (ties excluded): Cc1nc2ccc(Nc3nc(Cl)nc(N4CCOCC4)n3)cc2n1Cc1ccccc1
Output line: t

Input line: Does the reported growth of the following compound sit strictly below 50%? COc1ccc(/C=c2\c(=O)n(-c3ccccc3)c3nn4c(n23)=NNC42CCCCC2)cc1
Output line: f

Input line: Determine whether this compound shows growth lower than 50% (ties excluded): O=C(O)c1cn(-c2ccccc2)nc1-c1ccc(O)cc1
Output line: f

Input line: I'd appreciate it if you could check whether COc1ccc(-c2nc(-c3ccccc3OCc3ccccc3OC)nc(C)c2C(C)=O)cc1 has growth smaller than 50%.
Output line: f

Input line: Answer whether the compound C[C@]12CCc3nc(Nc4ccc(O)cc4)sc3C1=CC[C@@H]1[C@@H]2CC[C@]2(C)/C(=N/NC(N)=S)CC[C@@H]12 has growth strictly less than 50%
Output line: t

Input line: Below 50% on growth? Entry COc1cccc(NC(=O)c2c(-c3ccccc3)c(-c3ccccc3)n[nH]c2=O)c1
Output line: f

Input line: # strict comparison: is reported growth < 50%? input = Nc1nc(N)c2cc(Sc3ccc(Cl)cc3)ccc2n1
Output line: t

Input line: Is growth of CCCCc1n(Cc2ccc3ccccc3n2)cc[n+]1Cc1ccc2ccccc2n1 strictly below 50%?
Output line: t

Input line: Strictly below 50% in growth? CC(COC(=O)c1ccccc1)N1CC2CCC(C1)O2 (stereo not given)
Output line: f

Input line: Input O=NN(CC(=O)NNc1ccccc1)CC(=O)NNc1ccccc1 ; condition: growth strictly below 50%. Does it hold?
Output line: f

Input line: Regarding Cc1nc2c(-c3cnc(N)nc3)nc(N3CCOCC3)nc2n1C(C)C , kindly confirm whether its growth is beneath 50%.
Output line: t

Input line: Could you please tell me whether growth recorded for Cc1cc(C)cc(CCCCCCCCCCCCCCCCCC(=O)O)c1 is less than 50%?
Output line: f

Input line: Take the compound CNCc1cccc2c1OCCOCCOCCC(C)S(=O)(=O)c1ccc(cc1)-c1cnc(N)c(n1)C(=O)N2 (stereo not given) and say whether its growth is less than 50%.
Output line: f

Input line: Strictly below 50% in growth? COc1cc(-c2csc(NC(=O)Nc3cccc(C(F)(F)F)c3)n2)cc(OC)c1OC
Output line: t

Input line: Please state whether growth is below 50% for c1ccc(-c2[nH]c3ccccc3c2-c2ccccc2)cc1
Output line: f

Input line: Is it true that growth reported for COc1ccc(C2=NN(C=O)C(c3ccc(OS(=O)(=O)c4ccc(C)cc4)c(OC)c3)C2)cc1 (stereo not given) is less than 50%?
Output line: t
